target: Matrilysin (Homo sapiens) (UniProt P09237); assay: Inhibition of human recombinant MMP7 at 10 uM
Sequence (P09237 whole entry): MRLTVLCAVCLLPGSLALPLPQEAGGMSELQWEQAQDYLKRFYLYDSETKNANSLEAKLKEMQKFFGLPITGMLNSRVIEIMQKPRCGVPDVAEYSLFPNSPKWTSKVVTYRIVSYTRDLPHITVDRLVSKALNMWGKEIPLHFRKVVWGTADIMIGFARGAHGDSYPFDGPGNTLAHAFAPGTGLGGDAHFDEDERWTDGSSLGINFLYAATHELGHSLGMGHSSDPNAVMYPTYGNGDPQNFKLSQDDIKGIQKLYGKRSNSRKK
# label = True if inhibition >= 30% else False

>>> print(df.to_string())
                               smiles_entry    cat
0  O=C(NO)[C@H](CCCCNS(=O)(=O)c1ccccc1)NS(=O)(=O)c1ccccc1   True
1  O=C(NO)[C@H](CCCNS(=O)(=O)c1ccc(Cl)cc1)NS(=O)(=O)c1ccc(Cl)cc1   True
2  O=C(NO)[C@H](CCCCNS(=O)(=O)c1ccc(I)cc1)NS(=O)(=O)c1ccc(I)cc1   True
3  O=C(NO)[C@H](CCCCNS(=O)(=O)c1ccc(C(F)(F)F)cc1)NS(=O)(=O)c1ccc(C(F)(F)F)cc1  False
4  O=C(NO)[C@H](CCCNS(=O)(=O)c1ccc(Br)cc1)NS(=O)(=O)c1ccc(Br)cc1   True
5  O=C(NO)[C@H](CCCNS(=O)(=O)c1ccc(F)cc1)NS(=O)(=O)c1ccc(F)cc1  False

Origin of values: ChEMBL document CHEMBL1150313
